B1: glmS ribozyme (parent)
chain: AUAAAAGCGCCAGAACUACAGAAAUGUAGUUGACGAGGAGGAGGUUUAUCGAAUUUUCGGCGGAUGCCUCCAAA

Variants of: B1
METHOD: self-cleavage kobs at 2500 uM GlcN6P; higher = faster cleavage; RNA array
TEST PARAMETERS: with glucosamine-6-phosphate
Fewer inactive variants are shown than the library holds.
OBSERVATION TYPE: self-cleavage kobs at 2500 uM GlcN6P

Some entries whose results are on file:
AUAAAAGCGCCAGAACUACAGAAAUGUAUUUGACGAGGAGGUGGUUUUUCGAAUUUUCGGCAGAUGCCUCCAAA [G29U A42U A48U G62A]; < 1e-05 s⁻¹
AUAAAAGAGCCAGAACUACAGAAAUGUAGUUGACGAGGAGGAGGUUUAUCGAUUUUUCGGCGGAUGCCUCUAAA [C8A A53U C71U]; < 1e-05 s⁻¹
AUAAAAGCGCCAGAUCUACAGAAAUGUAGUUGACGAGGUGGAGGUUUAUCGAAUUUUCGGCGGAUGCCCCCAAA [A15U A39U U69C]; 0.000466 s⁻¹
AUAAAAGCGCCAGAACUACAGAAAUUUAGUUGACGAGGAGGAGGUUUAUCGGAUUUUCGGCGGAUGCCUCCAAA [G26U A52G]; 0.000726 s⁻¹
AUAAAAGCGCUAGAACUACAGAAAUGUAGUUGACGAGGAGGAGGUUAAUCGAAUUUUCGGCGGAUGCCUCCAAA [C11U U47A]; 0.0014 s⁻¹
AUAAAAGCACCAGAACUACAGAAAUGUAGUUGACGAGGAGAAGGUUUAUCGAAUUUUCGGCGGAUGCCUCCAAA [G9A G41A]; < 1e-05 s⁻¹
AUAAAAGCGCCAGUACUACAGAAAUGUAGUUGACGAGGAGGAGGUUUAUGGAAUUUUCGCCGGAUGCCUCCAAA [A14U C50G G60C]; 0.000405 s⁻¹
AUAAAAGCCCCAGAACUACAGAAAUGUAGUUGACGAGGAGGAGUUUUAUCGAAUUUUCGGCGGAUGCCUCCAAA [G9C G44U]; < 1e-05 s⁻¹

Req: Recorded self-cleavage kobs at 2500 uM GlcN6P of AUAAAAGCUCCAGAACUACAGAAAUGUAGUUGACGAGGAGGAGGUUUAUCGAAUUUUGGGCGUAUGCCUCCAAA [G9U C58G G63U] , please.
Resp: < 1e-05 s⁻¹

Req: Find the recorded self-cleavage kobs at 2500 uM GlcN6P belonging to AUAAAAGCGCUAGAACUACAGAAAUGUAGUUGACGAGGAGGAGGUUUAUAUAAUUUUCGGAGGAUGCCUCCAAA [C11U C50A G51U C61A] and report it.
Resp: 9.9e-05 s⁻¹

Req: Could you share which self-cleavage kobs at 2500 uM GlcN6P value was measured for AUAAAAGCACCAGAACUACAGAAAUGUAGUGGACGAGGACGAGGUUUAUCGAAUUUUCGGCGGAUGCCUCCAAA [G9A U31G G40C] ?
Resp: < 1e-05 s⁻¹

Req: Could you share which self-cleavage kobs at 2500 uM GlcN6P value was measured for AUAAAAGCGCCAGAACUACAGAAAUGUAGUGGACGAGGUGGAGGUUUAUCGAAUGUUCGGCGGAUGCCUCUAAA [U31G A39U U55G C71U] ?
Resp: 0.0043 s⁻¹

// data source = the supplement of paper PMC7125110
